The origin of these recorded values is the supplement of paper PMC11908140.

B1: library; numbered along this chain (parent)
chain: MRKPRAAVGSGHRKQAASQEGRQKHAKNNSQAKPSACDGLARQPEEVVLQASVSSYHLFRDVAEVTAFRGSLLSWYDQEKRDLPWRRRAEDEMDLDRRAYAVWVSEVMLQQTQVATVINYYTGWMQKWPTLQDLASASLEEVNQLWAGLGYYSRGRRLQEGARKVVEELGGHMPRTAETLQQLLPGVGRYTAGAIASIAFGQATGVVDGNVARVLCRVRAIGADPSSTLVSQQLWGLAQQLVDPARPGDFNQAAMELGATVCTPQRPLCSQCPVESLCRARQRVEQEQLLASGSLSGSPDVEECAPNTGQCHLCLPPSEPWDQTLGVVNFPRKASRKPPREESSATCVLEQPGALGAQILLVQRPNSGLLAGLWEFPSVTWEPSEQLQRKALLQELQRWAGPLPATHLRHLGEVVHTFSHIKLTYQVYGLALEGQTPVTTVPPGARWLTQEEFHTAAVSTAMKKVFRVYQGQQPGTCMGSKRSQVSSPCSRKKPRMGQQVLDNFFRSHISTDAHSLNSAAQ

Variants of: B1
Assay: 8OG:A repair function score (normalized; synonymous = 0, nonsense = -1) (normalized log-likelihood score); higher = more repair activity (WT-like);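 further: cells sorted at 72 h after reporter transfection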
Settings: with 8OG:A DNA repair reporter (GFP) in HEK-293 MUTYH KO cells
measurement name: 8OG:A repair function score

Problem: # 8OG:A repair function score lookup, item T191P
Result: -0.924

Problem: Consider next the variant L169Q in the same way.
Result: -0.00403

Problem: Consider next the variant P129G in the same way.
Result: -0.263

Problem: Consider next the variant L370F in the same way.
Result: -0.461

Problem: Consider next the variant W75D in the same way.
Result: -3.7

Problem: Consider next the variant L158M in the same way.
Result: -0.194

Problem: Consider next the variant R213K in the same way.
Result: -1

Problem: Consider next the variant R467W in the same way.
Result: -0.034

Problem: Consider next the variant G293H in the same way.
Result: -0.05

Problem: Consider next the variant T476N in the same way.
Result: -0.0111

Problem: Consider next the variant Q394L in the same way.
Result: -0.0272

Problem: Consider next the variant R98M in the same way.
Result: -0.316

Problem: Consider next the variant Q182C in the same way.
Result: -0.0792

Problem: Consider next the variant F504N in the same way.
Result: 0.023

Problem: Consider next the variant D208Q in the same way.
Result: -1.01

Problem: Consider next the variant L396H in the same way.
Result: -0.886

Problem: Consider next the variant S515G in the same way.
Result: -0.000426

Problem: Consider next the variant T228P in the same way.
Result: 0.212

Problem: Consider next the variant A520L in the same way.
Result: -0.0269

Problem: Consider next the variant E375S in the same way.
Result: -0.243

Problem: Consider next the variant A67M in the same way.
Result: -0.118

Problem: Consider next the variant A334S in the same way.
Result: 0.0289

Problem: Consider next the variant A254I in the same way.
Result: 0.133

Problem: Consider next the variant R467K in the same way.
Result: -0.0257

Problem: Consider next the variant R283N in the same way.
Result: -0.173

Problem: Consider next the variant S138Q in the same way.
Result: -0.0419

Problem: Consider next the variant E395C in the same way.
Result: -0.217

Problem: Consider next the variant A253V in the same way.
Result: -1

Problem: Consider next the variant P494C in the same way.
Result: 0.0281

Problem: Consider next the variant T263Y in the same way.
Result: -0.113

Problem: Consider next the variant F504P in the same way.
Result: -0.0247

Problem: Consider next the variant R246D in the same way.
Result: -0.657

Problem: Consider next the variant E168W in the same way.
Result: -0.201

Problem: Consider next the variant P474L in the same way.
Result: 0.0136

Problem: Consider next the variant Q202E in the same way.
Result: -0.0729

Problem: Consider next the variant A196P in the same way.
Result: -1.11

Problem: Consider next the variant V47T in the same way.
Result: -0.0192

Problem: Consider next the variant C477G in the same way.
Result: -0.00235

Problem: Consider next the variant G429Q in the same way.
Result: -0.283

Problem: Consider next the variant R189Y in the same way.
Result: -0.336

Problem: Consider next the variant P443V in the same way.
Result: 0.172

Problem: Consider next the variant N210R in the same way.
Result: -1.03

Problem: Consider next the variant L448N in the same way.
Result: -0.42

Problem: Consider next the variant R491V in the same way.
Result: 0.0088

Problem: Consider next the variant T380P in the same way.
Result: -0.128

Problem: Consider next the variant H454C in the same way.
Result: 0.0357
